# System: TK-10 renal
# protocol-text: NCI-60 one-dose screen, 48 h (100 = growth as untreated, 0 = no growth, -100 = all killed)
# condition-info: 10 µM unless noted
# Experimental: Growth inhibition of the TK-10 human tumor cell line is measured as a screen for anti-cancer activity. Cells are grown in 96 well plates and exposed to the test compound for 48 hours. Compounds are tested at a single concentration, which is 10^-5 M for most compounds. The reported endpoint is percent growth (GI% or GIPRCNT), where numbers from 0 - 100% represent growth inhibition, and numbers from -100% - 0 represent cell death. For example, a value of 40 represents 60% growth inhibition. […]
The panel holds about 83,000 compounds, 20% with a hit somewhere; the sample as a whole holds those more often.
Attribute: growth
Write down the numeric answer in % and omit the unit.

The following molecules have reported results that may help.
Task: Please report growth for the following molecule: CCOC(=O)c1csc(NC(=O)COc2cccc(/C=C3\Oc4cc(OC)ccc4C3=O)c2)n1
Output: 125

Task: Specify reported growth for the molecule shown: COc1cc(-c2nc(N3CCN(C)CC3)c3ccccc3n2)cc(OC)c1OC
Output: 94.1

Task: Report growth, nothing else, for this molecule: CCc1ccccc1-n1c(N)c(C#N)c(-c2ccc(N(C)C)cc2)c(C#N)c1=O
Output: 99.6

Task: Provide one value: measured growth of CCC1(C2CCCC2)NC(=O)NC1=O (stereo not given)
Output: 113

Task: Quickly give me recorded growth for COc1cc2nc(Cl)nc(Nc3ccc(S(=O)(=O)Nc4nccs4)cc3)c2cc1OC
Output: 119

Task: Provide measured growth value, entry: CC(C)(C)CC(C)(C)Nc1c(-c2ccncc2)nc2cnccn12
Output: 99.2

Consider the additional molecule presented here.
Task: Provide measured growth value, entry: COC(=O)c1c2c(c(C)[n+]([O-])c1C)C(=O)C(NCc1ccc(F)cc1)=CC2=O
Output: 81.4
